binders and their reported Kd
# tested system: T1, Macaca fascicularis IL2Rγ extracellular domain expressed with a C-terminal myc-myc-hexahistidine tag (Macaca fascicularis)
# T1 construct: whole entry is the tagged construct; also called mfIL-2Rg-MMH
# T1 chain: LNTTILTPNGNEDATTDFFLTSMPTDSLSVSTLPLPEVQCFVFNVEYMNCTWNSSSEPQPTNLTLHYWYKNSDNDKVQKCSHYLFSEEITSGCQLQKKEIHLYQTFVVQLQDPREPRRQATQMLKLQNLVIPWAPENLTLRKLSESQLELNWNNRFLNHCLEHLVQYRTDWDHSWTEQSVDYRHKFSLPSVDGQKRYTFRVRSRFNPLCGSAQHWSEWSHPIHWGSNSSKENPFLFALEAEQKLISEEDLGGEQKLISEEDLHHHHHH
# assay details: SPR Biacore 4000, anti-hFc-captured mAb, 37 C
readout kind: Kd (nM)

1) H4H12900P (antibody, human IgG4 S228P, kappa, V domains shown, fully human anti-IL2Rgamma mAb, human IgG4 Fc) VH: QVQLVESGGGLVKPGGSLRLSCEASGFTFNDFYMTWIRQAPGKGLEWIAYISKSGDKMRYADSVKGRFSTSRDNAKNSLSLQMNSLRAEDTAVYYCARFYGDIWGQGTLVTVSS VL: DIQLTQSPSFLSASVGDRVTITCWASQDISSFLVWYQQKPGKAPNLLIYAASALQSGVPSRFSGSGSGTEFTLTISSLQPEDFASYYCEQLNNYPWTFGQGTKVEIKR; 3.18
2) H4H12890P (antibody, human IgG4 S228P, kappa, V domains shown, fully human anti-IL2Rgamma mAb, human IgG4 Fc) VH: EVQLVESGGGLVQPGGSLRLSCAASGFTFNNYAMHWVRQAPGKGLEYVSSISSSGGSTYYEDSVKGRFTISRDNSKNTLYLQMGSLRAEDMAVYYCARSFYGSGTYYDTFDMWGQGTMVTVSS VL: DIQMTQSPSSLSASIGDRVTITCRASQSISRYLNWYQQKPGKAPKLLIYAASSLQSGVPSRFSASGSGTDFTLTISSLQPEDFATYYCQQSYSTPFTFGQGTKLEIKR; 14
3) H4H12874P (antibody, human IgG4 S228P, kappa, V domains shown, fully human anti-IL2Rgamma mAb, human IgG4 Fc) VH: QVQLVESGGGVVQPGRSLRLSCAASGFNFRNFGMHWVRQAPGKGLEWVAGILYDGSSKYYADSVKDRFTISRDNSKNTLFLQMNSLRAEDTAMYYCAKEEDTAMVPFDSWGPGTLVTVSS VL: DIQLTQSPSFLSASVGDRVTITCWASQGISSYLAWYQQKPGKAPTLLIYAASTLQSGVPSRFSGSGSGTEFTLTISSLQPEDFASYYCQQLKSYPLTFGGGTKVEIKR; 12.4
4) H4H12889P (antibody, human IgG4 S228P, kappa, V domains shown, fully human anti-IL2Rgamma mAb, human IgG4 Fc; also called REGN7257) VH: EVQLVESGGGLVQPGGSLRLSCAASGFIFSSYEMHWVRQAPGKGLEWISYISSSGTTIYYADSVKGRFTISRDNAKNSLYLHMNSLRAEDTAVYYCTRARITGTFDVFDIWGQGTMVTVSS VL: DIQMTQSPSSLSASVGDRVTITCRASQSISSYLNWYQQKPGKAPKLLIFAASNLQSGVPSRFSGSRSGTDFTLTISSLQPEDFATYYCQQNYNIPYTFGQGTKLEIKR; 4.63
5) H4H12884P (antibody, human IgG4 S228P, kappa, V domains shown, fully human anti-IL2Rgamma mAb, human IgG4 Fc) VH: QVQLQESGPGLVKPSQTLSLTCTVSGGSISSGGYYWSWIRQHPGKGLEWIGFIYYSGKTYYNPSLKSRLTISVDTSKSQFSLKLRSVTAADTAVYYCARLGYTNSAGWFDPWGQGTLVTVSS VL: DIQMTQSPSSLSASVGDRVTITCRASQSISSYLNWYQQKPGKAPNLLIYAASSLQSGVPSRFSGSGSGTDFTLTISSLQPEDLATYYCQQSYTTPFTFGPGTKVDIKR; 16.1
6) H4H12871P (antibody, human IgG4 S228P, kappa, V domains shown, fully human anti-IL2Rgamma mAb, human IgG4 Fc; also called REGN9434) VH: QVQLQESGPGLVKPSQTLSLTCTVSGGSITSGGYYWSWIRQYPGQGLEWIGYIYYSGKTYYNPSFTSRITISVDTSKKQFSLKMSSVTAADTAVYYCARAGFTSSNGWFDPWGQGTLVTVSS VL: DIQMTQSPSSLSASVGDRVTITCRASQNIRSYLNWYQQKPGKAPKLLIYSASSLQSGVPSRFSGSGSGTDFTLTISSLQPEDFPTYYCQQTYSSPWTFGPGTKVEIKR; 12.7
7) H4H12886P (antibody, human IgG4 S228P, kappa, V domains shown, fully human anti-IL2Rgamma mAb, human IgG4 Fc) VH: EVQLVESGGGLVKPGGSLRLSCAASGFTFSTAWMSWVRQSPGRGLEWVGRMKSKTDGGTTFYAAPVKGRFTISRDDSKNTLYLQMNSLKTEDTAVYYCTTGLVPAFYKYYGVDVWGQGTTVTVSS VL: DIQMTQSPSSLSASVGDRITITCQASQDITNYLNWYQQKPGKAPNLLIYDASNLVTGVPSRFSGSGSGTDFTFTILSLQPEDIATYYCQQYDSLLTFGPGTKVDIKR; 17.7
8) H4H12899P (antibody, human IgG4 S228P, kappa, V domains shown, fully human anti-IL2Rgamma mAb, human IgG4 Fc) VH: QVQLVESGGDLVKPGGSLRLSCATSGFTFSDFYMTWIRQAPGKGLEWISYISNSGSIVKYADSVKGRFTISRDNAKNSLYLQMNSLRAEDTAIYYCARFYGDRWGQGTLVTVSS VL: DIQLTQSPSFLSASVGDRVTITCWASQGISTFLAWYQQKPGKAPKLLIYAASTLQSGVPSRFSGSGSGTDFTLTISSLQPEDFATYHCQQLNNYPWTFGQGTKVEIKR; 6.71
9) H4H13538P (antibody, human IgG4 S228P, kappa, V domains shown, fully human anti-IL2Rgamma mAb, human IgG4 Fc) VH: EVQLVESGGGLVQPGGSLGLSCAASGFTFSNYAMSWVRQAPGKGLEWVSAVSGGGGGTYYADSVKGRFTISRDNSKNTVLLQMNSLRAEDTAVYYCARGRTGGLDYWGPGTLVTVSS VL: DVVMTQSPLSLPVIFGQPASISCRSSQSLVDSDGNTYLNWLQQRPGQSPRRLIYEVSNRDSGVPDRFSGSGSGTDFTLTISRVEAEDVGIYYCMQGTRWPPTFGGGTKVEIKR; 5.5
